Source: patent US20240246960A1

Each entry below carries its reported pEC50.
target: pDNA-PK ser2056 induction in HCT116 spheroids (Homo sapiens); construct: endogenous in cells; host or cells: HCT116 multicellular tumour spheroids; assay: Multicellular tumour spheroid + radiation, pDNA-PK inhibition, HCT116; assay type: cell-based; conditions: Example 8; spheroid; 20 Gy; read-out: Cell line: HCT116 Immunohistochemical endpoint pDNA-PK inhibition EC50
pEC50: −log10 of the molar value.

{"Compound": "Oc1cnc2cc(N3CCOCC3)nc(O[C@H]3CC[C@@H](Nc4ncccn4)CC3)c2c1 [Compound 19a]", "pEC50": "6.00 to 6.30"}
{"Compound": "c1ccc(N[C@H]2CC[C@@H](Oc3nc(N4CCOCC4)cc4ncccc34)CC2)nc1", "pEC50": "5.00 to 6.00"}
{"Compound": "CCOCCOc1cnc(N[C@H]2CC[C@@H](Oc3nc(N4CCOCC4)cc4ncc(Br)cc34)CC2)nc1 [Compound 18b]", "pEC50": "5.00 to 6.00"}
{"Compound": "c1cnc2cc(N3CCOCC3)nc(O[C@H]3CC[C@@H](Nc4ccncc4)CC3)c2c1", "pEC50": "5.00 to 6.00"}
{"Compound": "FC(F)(F)c1cnc(N[C@H]2CC[C@@H](Oc3nc(N4CCOCC4)cc4ncccc34)CC2)nc1", "pEC50": "5.00 to 6.00"}
{"Compound": "Cc1cnn([C@H]2CC[C@@H](Oc3nc(N4CCOCC4)cc4ncccc34)CC2)c1C(F)(F)F [Compound 17f]", "pEC50": "4.00 to 5.00"}
{"Compound": "c1cnc2cc(N3CCOCC3)nc(O[C@H]3CC[C@@H](Nc4cnccn4)CC3)c2c1", "pEC50": "6.30 to 8.00"}
{"Compound": "O=C(N[C@H]1CC[C@@H](Oc2nc(N3CCOCC3)cc3ncccc23)CC1)c1ccco1", "pEC50": "6.30 to 8.00"}
{"Compound": "Cc1nc(C(F)(F)F)cn1[C@H]1CC[C@@H](Oc2nc(N3CCOCC3)cc3ncccc23)CC1 [Compound 17i]", "pEC50": "5.00 to 6.00"}
{"Compound": "Cc1cn([C@H]2CC[C@@H](Oc3nc(N4CCOCC4)cc4ncccc34)CC2)nc1C(F)(F)F [Compound 17e]", "pEC50": "5.00 to 6.00"}
{"Compound": "CCCC(=O)N[C@H]1CC[C@@H](Oc2nc(N3CCOCC3)cc3ncccc23)CC1", "pEC50": "4.00 to 5.00"}
{"Compound": "c1cnc2cc(N3CCOCC3)nc(O[C@H]3CC[C@@H](n4ncnn4)CC3)c2c1 [Compound 17m]", "pEC50": "5.00 to 6.00"}
{"Compound": "CCOCCOc1cnc(N[C@H]2CC[C@@H](Oc3nc(N4CCOCC4)cc4ncc(O)cc34)CC2)nc1 [Compound 19b]", "pEC50": "6.30 to 8.00"}
{"Compound": "O=C(N[C@H]1CC[C@@H](Oc2nc(N3CCOCC3)cc3ncccc23)CC1)c1cncnc1", "pEC50": "5.00 to 6.00"}
{"Compound": "Cc1c(C(F)(F)F)cnn1[C@H]1CC[C@@H](Oc2nc(N3CCOCC3)cc3ncccc23)CC1 [Compound 17h]", "pEC50": "4.00 to 5.00"}
{"Compound": "COc1cnc(N[C@H]2CC[C@@H](Oc3nc(N4CCOCC4)cc4ncccc34)CC2)nc1 [Compound 20c]", "pEC50": "6.00 to 6.30"}
{"Compound": "c1cncc(N[C@H]2CC[C@@H](Oc3nc(N4CCOCC4)cc4ncccc34)CC2)c1", "pEC50": "5.00 to 6.00"}
